- Test system: RXRa homodimer (NR concentration 180 nM)
- test_method_notes: PBM binding z-score (relative to random genomic background probes); higher = stronger binding; sequences stand for … in GC…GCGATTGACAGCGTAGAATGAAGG
Respond with true for PBM binding z-score values of 2 and above, false for values below.

residue_sequence: TCTTGTAGATCAATAGAGGTTAAGGAAGTGCGCT
assigned_label: false
//
residue_sequence: CCTTACGGGTCACACCAGGTTATAGCATCGGAGT
assigned_label: true
//
residue_sequence: ATCGAAAGGTCGACGAGGTTAGTATACACCGTTT
assigned_label: true
//
residue_sequence: TCTTGTAGATCAGCAGGAGGTTAAGAAAGATCGA
assigned_label: false
//
residue_sequence: GAGACAGGGTCAAGGCCAGAGTACGCGTATTGAT
assigned_label: true
//
residue_sequence: TCTAGTTGGTCACGGAGGTCACTCACGACGGGTA
assigned_label: true
//
residue_sequence: ACTAGTTGGTCAGCTAAGGTCACACACAATTCGG
assigned_label: true
//
residue_sequence: GCTGGTAGATCAAGGTTAAGAAAGACTAAGCTAA
assigned_label: false
//
residue_sequence: AGAATGAGGTTATACGTAGATCATGGAAGAAAGT
assigned_label: true
//
residue_sequence: CGTCCAAGGACAAGGTCAGTGAAAGAGACTCGAA
assigned_label: true
//
residue_sequence: CCGAGTAGGTTATGGGGCAATCAGGCAACGGTGA
assigned_label: false
//
residue_sequence: CAAGCTAGGTCAAGGTCAAAGTCGGTTTGTGCCA
assigned_label: true
//
residue_sequence: CCTATTAGTTGAACATAAGGGCAACCGAAGCTCG
assigned_label: false
//
residue_sequence: CAAACTAGGTCAGGAGGTCAAAGTCCGCTTCCCG
assigned_label: true
//
residue_sequence: CCTTACGGGTTAAGGTTATAGCACGGGTGGTACG
assigned_label: true
//
residue_sequence: GGATATAGGTAATACAAGGTGAAAGTCCGATTGT
assigned_label: false
//
residue_sequence: CTCGAAAGGGCGGTTGAGGTGAGTATACGGATAA
assigned_label: false
//
residue_sequence: GCAGACAGGTGAACCGCAGGTAACTCAGGGTGGC
assigned_label: false
//
residue_sequence: ACTTACGGGTCAACGAGGTTATAGCCCGCGTATA
assigned_label: true
//
residue_sequence: TCTTGTAGATCCACAGGAGGTTAAGAAAGATCGA
assigned_label: false
//
residue_sequence: ATACCAAGGTGATCGTGAGGTCGTTGACACTAAC
assigned_label: false
//
residue_sequence: ATATGTAGGTGACATCCGGGTCATTCAGGCTATG
assigned_label: true

###

- Tested on: PXR homodimer (NR concentration 270 nM)
- test_method_notes: PBM binding z-score (relative to random genomic background probes); higher = stronger binding; sequences stand for … in GC…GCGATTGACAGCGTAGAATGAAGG

residue_sequence: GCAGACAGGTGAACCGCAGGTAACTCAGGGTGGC
PBM binding z-score: -0.535
--
residue_sequence: CCTAACAGGCCAGGGTCACTCAAGCATTTCGCTT
PBM binding z-score: -0.222
--
residue_sequence: ACTAGCAGGCCAAGTTTGGGACACTCAAACAAAG
PBM binding z-score: -0.694
--
residue_sequence: ACTATTAGTTGACTTAGGGCAACCGATACGACGC
PBM binding z-score: 0.409
--
residue_sequence: GTACCAAGGTGAATAGGTCGGTGATGAGTAGGCG
PBM binding z-score: 0.0352
--
residue_sequence: CCTACTGGCCCATCAGGTCATTGATATCAACGTT
PBM binding z-score: 0.678
--
residue_sequence: TCTCGGAGGACACGAAGGTGAGAGCTTTCCAGAG
PBM binding z-score: -0.615
--
residue_sequence: CCTCGGAGGACAGCAGGAGGTCAGAGCTGCCAGA
PBM binding z-score: 0.245
--
residue_sequence: ATATGTAGGTTACATCCGGGTAATTCAGGCTATG
PBM binding z-score: 0.614
